tgt: rat hepatic microsomal HMG CoA reductase (Rattus norvegicus, UniProt P51639)
Construct: rat hepatic microsomal HMG CoA reductase; from tissue; host or cells: rat liver microsomes
Sequence (P51639 whole entry): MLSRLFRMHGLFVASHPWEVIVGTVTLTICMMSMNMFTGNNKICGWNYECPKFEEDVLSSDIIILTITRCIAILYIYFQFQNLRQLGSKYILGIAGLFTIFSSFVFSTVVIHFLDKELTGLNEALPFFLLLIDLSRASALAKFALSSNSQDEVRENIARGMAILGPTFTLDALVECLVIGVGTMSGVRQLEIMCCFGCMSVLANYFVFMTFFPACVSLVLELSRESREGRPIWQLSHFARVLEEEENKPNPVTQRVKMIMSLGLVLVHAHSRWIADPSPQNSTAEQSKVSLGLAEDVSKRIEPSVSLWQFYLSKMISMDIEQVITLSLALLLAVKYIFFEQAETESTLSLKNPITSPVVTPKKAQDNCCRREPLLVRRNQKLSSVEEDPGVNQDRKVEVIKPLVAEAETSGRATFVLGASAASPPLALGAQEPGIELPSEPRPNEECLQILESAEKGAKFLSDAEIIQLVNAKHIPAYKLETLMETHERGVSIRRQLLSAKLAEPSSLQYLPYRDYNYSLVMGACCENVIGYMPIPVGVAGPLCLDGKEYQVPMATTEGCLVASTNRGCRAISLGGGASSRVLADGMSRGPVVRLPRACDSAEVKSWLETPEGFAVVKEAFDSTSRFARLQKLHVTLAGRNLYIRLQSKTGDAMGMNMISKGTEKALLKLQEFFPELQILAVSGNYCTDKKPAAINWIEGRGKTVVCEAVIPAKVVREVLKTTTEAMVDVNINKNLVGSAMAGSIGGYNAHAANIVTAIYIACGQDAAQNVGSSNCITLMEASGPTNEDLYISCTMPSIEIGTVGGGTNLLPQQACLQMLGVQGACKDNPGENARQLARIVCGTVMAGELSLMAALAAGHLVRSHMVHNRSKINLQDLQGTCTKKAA
test name: inhibition of rat hepatic microsomal HMG CoA reductase activity in vitro (Table I)
Format: biochemical
condition description: 6.66 micrograms/ml
Documented inhibition at 6.66 µg/mL across a set of compounds
Expressed in %, but write only the number.

Some solved entries appear below for comparison.
compound	result units	inhibition at 6.66 µg/mL
CC(C)n1c(/C=C/C(O)CC(O)CC(=O)O)c(-c2ccc(F)cc2)c2ccccc2c1=O (stereo not shown) [Compound E]	%	82
CC(C)n1c(/C=C/[C@@H]2C[C@@H](O)CC(=O)O2)c(-c2ccc(F)cc2)c2ccccc2c1=O	%	99
CC(C)c1c(CC[C@@H]2C[C@@H](O)CC(=O)O2)n(-c2ccc(F)cc2)c(=O)c2ccccc12	%	79

Lab note: next compound to report on.
Incoming: Which inhibition at 6.66 µg/mL is reported for this compound? CC(C)c1c(/C=C/[C@@H]2C[C@@H](O)CC(=O)O2)n(-c2ccc(Cl)cc2)c(=O)c2ccccc12
Outgoing: 91

----------
tgt: rat hepatic microsomal HMG CoA reductase (Rattus norvegicus)
Construct: rat hepatic microsomal HMG CoA reductase; from tissue; host or cells: rat liver microsomes
test name: inhibition of rat hepatic microsomal HMG CoA reductase activity in vitro (Table I)
Type: biochemical
condition description: 0.74 micrograms/ml
value kind: inhibition at 0.74 µg/mL (%)
Expressed in %, but write only the number.

molecule	inhibition at 0.74 µg/mL (%)
Cc1cc(-n2c(/C=C/[C@@H]3C[C@@H](O)CC(=O)O3)c(C(C)C)c3ccccc3c2=O)ccc1F [P]	63
CC(C)n1c(/C=C/C(O)CC(O)CC(=O)O)c(-c2ccc(F)cc2)c2ccccc2c1=O (stereo not drawn) [Compound F]	59

Incoming: Which inhibition at 0.74 µg/mL is reported for this molecule? CC(C)c1c(/C=C/[C@@H](O)C[C@@H](O)CC(=O)O)n(-c2ccc(F)cc2)c(=O)c2ccccc12 [AG]
Outgoing: 89
